# Test target: SIRT2 (Homo sapiens)
# Sequence (Q8IXJ6 34-356): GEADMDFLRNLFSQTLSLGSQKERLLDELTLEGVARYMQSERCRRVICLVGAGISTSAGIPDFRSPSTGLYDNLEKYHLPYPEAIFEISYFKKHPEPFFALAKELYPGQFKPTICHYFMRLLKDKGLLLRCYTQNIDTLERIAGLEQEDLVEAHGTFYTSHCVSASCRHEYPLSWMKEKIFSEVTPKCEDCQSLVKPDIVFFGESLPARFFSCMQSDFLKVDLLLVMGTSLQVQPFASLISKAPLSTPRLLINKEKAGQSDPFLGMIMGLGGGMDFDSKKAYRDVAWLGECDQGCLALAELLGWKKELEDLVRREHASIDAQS
# Procedure summary: SIRT2 demyristoylase activity assay (MALDI-MS, myristoyl-H4K16 peptide)
# Type: biochemical
I'd be grateful if you could share measured IC50 for these entries.
State just the number; it will be interpreted in µM.

Tested on SIRT2 (Homo sapiens): O=c1/c(=C\c2cc(Br)cc(I)c2O)sc2nc3ccccc3n12 [compound 1] . Observed IC50: 37

Tested on SIRT2 (Homo sapiens): O=C1CSc2nc3ccccc3n21 [compound 15] . Observed IC50: 117

* * *

# Test target: SIRT2—decanoyl-peptide complex (Homo sapiens, UniProt Q8IXJ6)
# Procedure summary: 1-aminoanthracene binding competition assay, SIRT2—decanoyl-peptide complex
Property label: pKd
Lab note — pKd values are minus log10 of concentrations in M.

The compound listed as `Oc1ccc(Br)cc1I` shows pKd equal to 5.52

* * *

# Test target: human SIRT2 catalytic domain (6xHis-SUMO-SIRT2) (Homo sapiens, UniProt Q8IXJ6)
# Sequence (Q8IXJ6 34-356): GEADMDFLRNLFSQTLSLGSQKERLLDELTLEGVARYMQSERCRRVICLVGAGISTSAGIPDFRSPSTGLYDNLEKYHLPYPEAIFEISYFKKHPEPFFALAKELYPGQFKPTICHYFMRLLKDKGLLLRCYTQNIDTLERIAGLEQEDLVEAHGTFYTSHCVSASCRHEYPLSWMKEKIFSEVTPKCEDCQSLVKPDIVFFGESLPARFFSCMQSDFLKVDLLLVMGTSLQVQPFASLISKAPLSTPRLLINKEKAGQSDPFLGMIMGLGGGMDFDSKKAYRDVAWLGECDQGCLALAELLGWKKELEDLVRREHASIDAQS
Property label: IC50

The molecule listed as `COc1ccc(NC(=O)c2ccc3c(SCC(=O)O)c4c(nc3c2)CCCC4)c(OC)c1` shows IC50 equal to 6.34 µM
